- methodSummary: Pro-apoptotic activity in human IGROV1-R10 cells transfected with Bcl-xL siRNA assessed as accumulation at sub G1 phase at 25 uM incubated for 24 hrs by propidium iodide staining based flow cytometry analysis (reference value: 17% )
- Type: functional
Class (by Activity) -- one (below 40%), two (40% to below 50%), three (50% or more)

Cc1cc(-c2ncc(-c3cccnc3)cc2/C=C/c2ccccc2)cnc1-c1cccc(C/C(N)=N/O)c1 = three

Incoming: Classify this compound: Cc1cc(-c2ncc(-c3cccc(C/C(N)=N/O)c3)cc2/C=C/c2ccccc2)cnc1-c1cccnc1
Outgoing: two

Incoming: Classify this compound: Cc1cc(-c2ncc(-c3cccnc3)cc2/C=C/c2ccccc2)cnc1-c1cccc(CC(=O)O)c1
Outgoing: one

Incoming: Classify this compound: Cc1cc(-c2ncc(-c3cccnc3)cc2/C=C/c2ccccc2)cnc1-c1cccnc1
Outgoing: three

====

- methodSummary: Pro-apoptotic activity in human IGROV1-R10 cells transfected with Bcl-xL siRNA assessed as accumulation at sub G1 phase at 25 uM incubated for 24 hrs by propidium iodide staining based flow cytometry analysis (reference value: 17% )
- Assay type: functional
endpointLabel: Activity (%)
Respond with the bare value in %.

The examples below pair each entry with its known result.
Cc1cc(-c2ncc(-c3cccc(CC#N)c3)cc2/C=C/c2ccccc2)cnc1-c1cccnc1 = 36.9
Cc1cc(-c2ncc(-c3cccnc3)cc2/C=C/c2ccccc2)cnc1-c1cccc(CC#N)c1 = 43
Cc1cc(-c2ncc(-c3cccc(CC(=O)O)c3)cc2/C=C/c2ccccc2)cnc1-c1cccnc1 = 46.8
Cc1cc(-c2ncc(-c3cccnc3)cc2/C=C/c2ccccc2)cnc1-c1cccc(O)c1 = 52.2

With those in mind, consider the next compound.
Incoming: Consider the compound Cc1cc(-c2ncc(-c3cccc(O)c3)cc2/C=C/c2ccccc2)cnc1-c1cccnc1 and give its measured Activity.
Outgoing: 37.5
